Below: molecules with IC50 recorded for IRAK4 (Homo sapiens (Human), UniProt Q9NWZ3) in separate published works.
Readout: IC50 (nM)

Past entries and their recorded results:
I would be grateful if you could share the reported IC50 for `CC(C)(O)[C@H](F)CNC(=O)c1cnc2ccc(-c3cncs3)cc2c1Nc1cnn(CC(F)F)c1` . 430

I would be grateful if you could share the reported IC50 for O=C(NC1CCC(O)CC1)c1cnc(Nc2ccc3ncsc3c2)cc1NC1CCCC1F (stereo not drawn) . 3.8

I would be grateful if you could share the reported IC50 for `O=C1CC[C@@H](COc2nccc3cc4c(=O)[nH]cc(C5CC5)c4cc23)N1` . 4.9

[1] CN1CCN(c2ccc(Nc3ncc(-c4nc5ccccc5s4)c(N[C@@H]4C[C@H](CO)[C@@H](O)[C@H]4O)n3)cc2)CC1
[2] CC(C)Nc1c(C(=O)NC[C@@H](F)C(C)(C)O)cnn2cc(-c3nccs3)cc12
[3] CC(C)(O)c1cc2nn(C3CCN(CCC4CCN(C(=O)c5ccc(Cl)c(N6CCC(=O)NC6=O)c5)CC4)CC3)cc2cc1NC(=O)c1cccc(C(F)(F)F)n1
[4] C[C@@H](O)C(=O)N1CCC(N2CC(n3cc(NC(=O)c4cccc(-c5cc[nH]n5)n4)c(C(F)F)n3)C2)CC1
Sort entries by IC50 from minimum to maximum value. Hello, could you send the labels back in the order asked? Thank you. 4, 1, 2, 3
(4: 0.59 nM, 1: 3 nM, 2: 6.3 nM, 3: 10.3 nM)
